The values you see were collected from patent US10385065B2.

# Tested on: S. aureus VRS1 MRSA VAN resistant
# experiment: MIC, S. aureus VRS1
# Type: cell-based
# measurement.conditions: Staphylococcus aureus, Table 2
metric.name: MIC

{"compound": "Cc1nc2c(=O)n(C3CC3)c3cc(N4CCC(N)CC4)c(F)cc3c2o1 [Compound 49]", "metric.name": "MIC", "obs.value": "> 100 µg/mL"}
{"compound": "Cc1c(-c2cnc3[nH]nc(N)c3c2)ccc2c3ocnc3c(=O)n(C3CC3)c12 [Compound 21]", "metric.name": "MIC", "obs.value": "< 1 µg/mL"}
{"compound": "Cc1nc2c(=O)n3c4c(c(N5CC[C@@H](CN)C5)c(F)cc4c2o1)OC[C@@H]3C [Compound 90]", "metric.name": "MIC", "obs.value": "10 to 100 µg/mL"}
{"compound": "Cc1c(-c2cnc3[nH]ncc3c2)ccc2c3ocnc3c(=O)n(C3CC3)c12 [Compound 20]", "metric.name": "MIC", "obs.value": "< 1 µg/mL"}
{"compound": "Cc1onc(-c2ccccc2)c1C(=O)N[C@@H]1C(=O)N2[C@@H]1SC(C)(C)[C@@H]2C(=O)O [Oxacillin, reference compound]", "metric.name": "MIC", "obs.value": "< 1 µg/mL"}
{"compound": "C[C@H]1COc2c(N3CCN(C)CC3)c(F)cc3c(=O)c(C(=O)O)cn1c23 [Levofloxacin, reference compound]", "metric.name": "MIC", "obs.value": "10 to 100 µg/mL"}
{"compound": "C[C@H]1COc2c(-c3ccc(C(N)=O)cc3)ccc3c4ocnc4c(=O)n1c23 [Compound 96]", "metric.name": "MIC", "obs.value": "1 to 10 µg/mL"}
{"compound": "Cc1nc2c(=O)n(C3CC3)c3cc(N4CC[C@H](CN)C4)c(F)cc3c2o1 [Compound 52]", "metric.name": "MIC", "obs.value": "1 to 10 µg/mL"}

----------
Observed MIC values for Haemophilus influenzae ATCC 49247 are listed in what follows.

{"compound": "Cc1c(-c2cnc(N)nc2)ccc2c3ocnc3c(=O)n(C3CC3)c12 [Compound 14]", "MIC": "1 to 10 µg/mL"}
{"compound": "CNC(=O)c1ccc(-c2cc3c(cc2F)c2ocnc2c(=O)n3C2CC2)cc1F [Compound 67]", "MIC": "10 to 100 µg/mL"}
{"compound": "Cc1c(-c2cnc3[nH]nc(N)c3c2)ccc2c3ocnc3c(=O)n(C3CC3)c12 [Compound 21]", "MIC": "1 to 10 µg/mL"}
{"compound": "Nc1ccc(-c2cc3c(cc2F)c2ocnc2c(=O)n3C2CC2)cn1 [Compound 70]", "MIC": "> 100 µg/mL"}
{"compound": "Cc1c(-c2ccc(N)c(F)c2)ccc2c3ocnc3c(=O)n(C3CC3)c12 [Compound 38]", "MIC": "< 1 µg/mL"}

----------
# System: Staphylococcus aureus ATCC 29213
# experiment: MIC, broth microdilution, S. aureus ATCC 29213
# Type: cell-based
# measurement.conditions: ATCC 29213 / MSSA, Table 2, read-out: MIC S. aureus (MSSA) ATCC 29213 CLSI control strain
Below, each of the molecules is paired with its reported MIC value.

{"molecule": "C[C@H]1COc2c(-c3ccc(C(N)=O)cc3)ccc3c4ocnc4c(=O)n1c23", "MIC": "1 to 10 µg/mL"}
{"molecule": "Cc1nc2c(=O)n(C3CC3)c3cc(N4CCC(N)CC4)c(F)cc3c2o1", "MIC": "1 to 10 µg/mL"}
{"molecule": "Cc1c(-c2ccc3[nH]ncc3c2)ccc2c3scnc3c(=O)n(C3CC3)c12", "MIC": "< 1 µg/mL"}
{"molecule": "Cc1nc2c(=O)n(C3CC3)c3c(C)c(-c4ccc5cn[nH]c5c4)ccc3c2o1", "MIC": "< 1 µg/mL"}
{"molecule": "COc1c(N2CCC(N)C2)c(F)cc2c3ocnc3c(=O)n(C3CC3)c12 (centres unmarked)", "MIC": "< 1 µg/mL"}
{"molecule": "O=c1c2ncoc2c2cc(F)c(-c3cc(F)c(CO)cc3F)cc2n1C1CC1", "MIC": "< 1 µg/mL"}
{"molecule": "Cc1c(-c2cc(F)c(N)cc2F)ccc2c3oc(CN(C)C)nc3c(=O)n(C3CC3)c12", "MIC": "< 1 µg/mL"}
{"molecule": "Cc1nc2c(=O)n(C3CC3)c3cc(N4CCC(C(C)N)C4)c(F)cc3c2o1 (centres unmarked)", "MIC": "1 to 10 µg/mL"}

----------
Observed MIC values for Haemophilus influenzae ATCC 49247 are listed in what follows.
metric.name: MIC

{"compound": "Cc1c(-c2ccc(NCc3ccccc3)nc2)ccc2c3ocnc3c(=O)n(C3CC3)c12 [Compound 48]", "metric.name": "MIC", "obs.value": "1 to 10 µg/mL"}
{"compound": "NC1C2CN(c3nc4c(cc3F)c3ocnc3c(=O)n4C3CC3)CC12 (stereo not shown) [Compound 82]", "metric.name": "MIC", "obs.value": "10 to 100 µg/mL"}
{"compound": "Cc1c(-c2cc(F)c(C(=O)O)cc2F)ccc2c3ocnc3c(=O)n(C3CC3)c12 [Compound 47]", "metric.name": "MIC", "obs.value": "> 100 µg/mL"}
{"compound": "Cc1c(-c2cc(F)c(N)cc2F)ccc2c3ocnc3c(=O)n(C3CC3)c12 [Compound 1]", "metric.name": "MIC", "obs.value": "< 1 µg/mL"}

----------
# Tested on: Staphylococcus aureus ATCC 29213
# experiment: MIC, broth microdilution, S. aureus ATCC 29213
# Assay type: cell-based
# measurement.conditions: ATCC29213, Table 1, wild type strain, read-out: MIC S. aureus ATCC 29213

{"compound": "Cc1nc2c(=O)n(C3CC3)c3c(C)c(-c4cnc(N)nc4)ccc3c2o1", "MIC": "< 1 µg/mL"}
{"compound": "O=c1c2ncoc2c2cc(F)c(-c3ccc(C(F)(F)F)nc3)cc2n1C1CC1", "MIC": "10 to 100 µg/mL"}
{"compound": "Cc1c(-c2ccc(N)c(F)c2)ccc2c3ocnc3c(=O)n(C3CC3)c12", "MIC": "< 1 µg/mL"}
{"compound": "Cc1nc2c(=O)n(C3CC3)c3c(C)c(-c4ccc(C#N)cc4F)ccc3c2o1", "MIC": "< 1 µg/mL"}
{"compound": "O=c1c2ncoc2c2cc(F)c(-c3cc(F)c(CO)cc3F)cc2n1C1CC1", "MIC": "< 1 µg/mL"}
{"compound": "Cc1nc2c(=O)n(C3CC3)c3c(Cl)c(N4CCC(CN)C4)c(F)cc3c2o1 (stereo not shown)", "MIC": "< 1 µg/mL"}
{"compound": "O=c1c2ncoc2c2cc(F)c(-c3ccc(O)cc3)cc2n1C1CC1", "MIC": "< 1 µg/mL"}
{"compound": "Cc1nc2c(=O)n(C3CC3)c3cc(N4CCC(O)C4)c(F)cc3c2o1 (stereo not shown)", "MIC": "10 to 100 µg/mL"}
{"compound": "Cc1nc2c(=O)n3c4c(c(N5CC[C@@H](CN)C5)c(F)cc4c2o1)OC[C@@H]3C", "MIC": "< 1 µg/mL"}
{"compound": "Cc1c(-c2ccc3nonc3c2)ccc2c3ocnc3c(=O)n(C3CC3)c12", "MIC": "< 1 µg/mL"}
{"compound": "CCn1c(=O)c2ncoc2c2cc(F)c(-c3cc(N)c(F)cc3F)c(C)c21", "MIC": "10 to 100 µg/mL"}
{"compound": "Cc1nc2c(=O)n(C3CC3)c3c(C)c(-c4ccc5[nH]ncc5c4)ccc3c2o1", "MIC": "< 1 µg/mL"}
{"compound": "Cc1nc2c(=O)n(C3CC3)c3c(C)c(-c4cc(F)c(CO)cc4F)ccc3c2o1", "MIC": "< 1 µg/mL"}
{"compound": "Cc1nc2c(=O)n(C3CC3)c3c(C)c(-c4cc(F)c(C(N)=O)cc4F)ccc3c2o1", "MIC": "< 1 µg/mL"}
{"compound": "Cc1c(-c2cc(F)c(N)cc2F)ccc2c3oc(CN(C)C)nc3c(=O)n(C3CC3)c12", "MIC": "< 1 µg/mL"}
{"compound": "Cc1nc2c(=O)n(C3CC3)c3c(C)c(-c4cnn(C5CN(C(=O)OC(C)(C)C)C5)c4)ccc3c2o1", "MIC": "1 to 10 µg/mL"}
{"compound": "Cc1c(-c2cc(F)c(CO)cc2F)ccc2c3ocnc3c(=O)n(C3CC3)c12", "MIC": "< 1 µg/mL"}
{"compound": "Nc1ncc(-c2cc3c(cc2F)c2ocnc2c(=O)n3C2CC2)cn1", "MIC": "1 to 10 µg/mL"}
{"compound": "Cc1nc2c(=O)n(C3CC3)c3cc(N4CCC(N)C4)c(F)cc3c2o1 (stereo not shown)", "MIC": "1 to 10 µg/mL"}
{"compound": "Cc1nc2c(=O)n3c4c(c(N5CC[C@H](CN)C5)c(F)cc4c2o1)OC[C@@H]3C", "MIC": "1 to 10 µg/mL"}
{"compound": "Cc1nc2c(=O)n(C3CC3)c3cc(N4CCCC(N)C4)c(F)cc3c2o1 (stereo not shown)", "MIC": "1 to 10 µg/mL"}
{"compound": "Cc1nc2c(=O)n(C3CC3)c3c(C)c(-c4cc(F)c(C#N)cc4F)ccc3c2o1", "MIC": "< 1 µg/mL"}
{"compound": "Cc1nc2c(=O)n(C3CC3)c3c(C)c(-c4ccc(N)nc4)ccc3c2o1", "MIC": "< 1 µg/mL"}
{"compound": "Nc1cc(-c2nc3c(cc2F)c2ocnc2c(=O)n3C2CC2)c(F)cc1F", "MIC": "10 to 100 µg/mL"}
{"compound": "Cc1nc2c(=O)n(C3CC3)c3c(C)c(-c4cnc(C(C)(C)O)nc4)ccc3c2o1", "MIC": "10 to 100 µg/mL"}
{"compound": "COc1ccc(-c2cc3c(cc2F)c2ocnc2c(=O)n3C2CC2)cc1", "MIC": "> 100 µg/mL"}
{"compound": "Cc1nc2c(=O)n(C3CC3)c3cc(-c4ccc(CN)c(F)c4)c(F)cc3c2o1", "MIC": "< 1 µg/mL"}
{"compound": "C[C@H]1COc2c(-c3ccc(N)nc3)ccc3c4ocnc4c(=O)n1c23", "MIC": "1 to 10 µg/mL"}
{"compound": "NC1CCN(c2nc3c(cc2F)c2ocnc2c(=O)n3C2CC2)C1 (stereo not shown)", "MIC": "1 to 10 µg/mL"}
{"compound": "Cc1c(-c2cc(F)c(N)cc2F)ccc2c3ocnc3c(=O)n(C3CC3)c12", "MIC": "< 1 µg/mL"}
{"compound": "O=c1c2ncoc2c2cc(F)c(-c3ccncc3Cl)cc2n1C1CC1", "MIC": "1 to 10 µg/mL"}
{"compound": "Cc1c(-c2ccc(N)cc2)ccc2c3ocnc3c(=O)n(C3CC3)c12", "MIC": "< 1 µg/mL"}
{"compound": "NCC1CCN(c2nc3c(cc2F)c2ocnc2c(=O)n3C2CC2)C1 (stereo not shown)", "MIC": "1 to 10 µg/mL"}
{"compound": "Cc1nc2c(=O)n(C3CC3)c3cc(N4CCC(N)CC4)c(F)cc3c2o1", "MIC": "1 to 10 µg/mL"}
